Reported kcat is given for each of the following proteins.
Substrate: CCCCC/C=C\C/C=C\C=C\[C@@H](C/C=C\CCCC(=O)O)OO
method-description: purified protein
Assay type: biochemical, Capnella imbricata
conditions: 50 mM Tris pH 8.0, 100 mM NaCl, 1 mM CaCl2, 20 °C, 5–50 μM substrate
Give your result in s⁻¹ as a bare value.

[
  {
    "protein": "C. imbricata cHPL (catalase-related hydroperoxide lyase domain) (Capnella imbricata; F150L) (protein, N-terminal cHPL domain of the HPL-LOX fusion protein, without the LOX domain; cHPL-His4 in pET11a; E. coli BL21(DE3), Ni-NTA; heme protein; monomer 45 kDa plus oligomers 440-670 kDa) MVWKNFGYEIFAEKFGKDELEKRIKDEHTAPPESPLFGSLKLKMKKEKFKILFTLRTTMEGFRRPTHTVATGGLGEITIVSDPKFPEHEFYRAGRKFPARLRHANLKLLDDAGSDARSFSIKFADNDSESPMDIVMNTGEANIFWNTSSLEDFVSSSAGESAAKEYVYKNPYYYYYSIEALRRAPETFAHLYYYSQLTMHFKAKDGKVRYCRYRAIPGDADIKEEEESGRLTEEEQRNVWIRSRHQNEKRPDDYLRKEYVERLGKGPVNYRLQIQIHEASPDDTATIFHAGIMWNKETHPWFDLAKVSIKTPLSPDVLERTSFNIVNQPESLGLLEAKSPEDYNSIGQIRVAVYKWIQHLRKLKVGSLVPTGQN",
    "reading-unit": "s⁻¹",
    "kcat": 49.6
  }
]

*Q* Tell me the measured kcat of C. imbricata cHPL (catalase-related hydroperoxide lyase domain) (Capnella imbricata; I357V) (protein, N-terminal cHPL domain of the HPL-LOX fusion protein, without the LOX domain; cHPL-His4 in pET11a; E. coli BL21(DE3), Ni-NTA; heme protein; monomer 45 kDa plus oligomers 440-670 kDa) MVWKNFGYEIFAEKFGKDELEKRIKDEHTAPPESPLFGSLKLKMKKEKFKILFTLRTTMEGFRRPTHTVATGGLGEITIVSDPKFPEHEFYRAGRKFPARLRHANLKLLDDAGSDARSFSIKFADNDSESPMDIVMNTGEANIFWNTSSFEDFVSSSAGESAAKEYVYKNPYYYYYSIEALRRAPETFAHLYYYSQLTMHFKAKDGKVRYCRYRAIPGDADIKEEEESGRLTEEEQRNVWIRSRHQNEKRPDDYLRKEYVERLGKGPVNYRLQIQIHEASPDDTATIFHAGIMWNKETHPWFDLAKVSIKTPLSPDVLERTSFNIVNQPESLGLLEAKSPEDYNSIGQIRVAVYKWVQHLRKLKVGSLVPTGQN , please.
*A* 63.9

*Q* Also C. imbricata cHPL (catalase-related hydroperoxide lyase domain) (Capnella imbricata; P65A) (protein, N-terminal cHPL domain of the HPL-LOX fusion protein, without the LOX domain; cHPL-His4 in pET11a; E. coli BL21(DE3), Ni-NTA; heme protein; monomer 45 kDa plus oligomers 440-670 kDa) MVWKNFGYEIFAEKFGKDELEKRIKDEHTAPPESPLFGSLKLKMKKEKFKILFTLRTTMEGFRRATHTVATGGLGEITIVSDPKFPEHEFYRAGRKFPARLRHANLKLLDDAGSDARSFSIKFADNDSESPMDIVMNTGEANIFWNTSSFEDFVSSSAGESAAKEYVYKNPYYYYYSIEALRRAPETFAHLYYYSQLTMHFKAKDGKVRYCRYRAIPGDADIKEEEESGRLTEEEQRNVWIRSRHQNEKRPDDYLRKEYVERLGKGPVNYRLQIQIHEASPDDTATIFHAGIMWNKETHPWFDLAKVSIKTPLSPDVLERTSFNIVNQPESLGLLEAKSPEDYNSIGQIRVAVYKWIQHLRKLKVGSLVPTGQN ?
*A* 40.3

*Q* Also C. imbricata cHPL (catalase-related hydroperoxide lyase domain) (Capnella imbricata; S177L/Y176N) (protein, N-terminal cHPL domain of the HPL-LOX fusion protein, without the LOX domain; cHPL-His4 in pET11a; E. coli BL21(DE3), Ni-NTA; heme protein; monomer 45 kDa plus oligomers 440-670 kDa) MVWKNFGYEIFAEKFGKDELEKRIKDEHTAPPESPLFGSLKLKMKKEKFKILFTLRTTMEGFRRPTHTVATGGLGEITIVSDPKFPEHEFYRAGRKFPARLRHANLKLLDDAGSDARSFSIKFADNDSESPMDIVMNTGEANIFWNTSSFEDFVSSSAGESAAKEYVYKNPYYYYNLIEALRRAPETFAHLYYYSQLTMHFKAKDGKVRYCRYRAIPGDADIKEEEESGRLTEEEQRNVWIRSRHQNEKRPDDYLRKEYVERLGKGPVNYRLQIQIHEASPDDTATIFHAGIMWNKETHPWFDLAKVSIKTPLSPDVLERTSFNIVNQPESLGLLEAKSPEDYNSIGQIRVAVYKWIQHLRKLKVGSLVPTGQN ?
*A* 218
